molecular target: GlyT1 (Homo sapiens); details: read-out: glycine EC50 (transport current); GlyT1 expressed alone
Sequence (P48067 1-652 isoform P48067-3): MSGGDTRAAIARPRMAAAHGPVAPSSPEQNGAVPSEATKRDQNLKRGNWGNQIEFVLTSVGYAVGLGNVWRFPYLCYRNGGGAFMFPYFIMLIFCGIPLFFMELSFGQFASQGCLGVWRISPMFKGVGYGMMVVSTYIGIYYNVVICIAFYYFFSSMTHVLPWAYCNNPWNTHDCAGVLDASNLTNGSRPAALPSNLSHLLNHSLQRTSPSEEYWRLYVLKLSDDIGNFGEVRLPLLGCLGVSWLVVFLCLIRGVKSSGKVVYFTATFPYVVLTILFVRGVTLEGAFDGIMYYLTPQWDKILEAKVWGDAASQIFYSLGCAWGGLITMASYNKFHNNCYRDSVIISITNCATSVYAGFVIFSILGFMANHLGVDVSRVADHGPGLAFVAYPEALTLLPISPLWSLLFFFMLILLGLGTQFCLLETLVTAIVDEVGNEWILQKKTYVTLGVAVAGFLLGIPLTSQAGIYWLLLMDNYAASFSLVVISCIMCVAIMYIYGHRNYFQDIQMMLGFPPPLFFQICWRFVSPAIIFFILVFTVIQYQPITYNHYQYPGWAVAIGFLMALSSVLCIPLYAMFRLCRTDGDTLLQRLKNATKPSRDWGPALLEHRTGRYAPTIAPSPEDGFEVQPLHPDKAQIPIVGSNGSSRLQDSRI
pEC50: −log10 of the molar value.
endpoint_label: pEC50

Short answer on GlyT1 (Homo sapiens) for NCC(=O)O , pEC50: ~4.46

// provenance: paper PMC7760315
